Task for the reader: assign each of the following compounds its reported minimum biofilm eradication concentration (MBEC).
# Test system: Pseudomonas aeruginosa (ATCC 15442) biofilms
# protocol summary: MBEC test, 24-hour biofilm, one hour biocide challenge
# Type: cell-based
# study conditions: Pseudomonas aeruginosa, ATCC15442, 1 h, 24-hour biofilm, 1 hour contact; blends: total biocide; read-out: MBEC

Observed minimum biofilm eradication concentration (MBEC) on Pseudomonas aeruginosa (ATCC 15442) biofilms for CCCCCCCCN(C)CCCCCCCC , please.
800 µg/mL

Write down the reported minimum biofilm eradication concentration (MBEC) of CCCCCCCCCCN , test system: Pseudomonas aeruginosa (ATCC 15442) biofilms.
200 µg/mL

Find the measured minimum biofilm eradication concentration (MBEC): item CCCCCCCCCCCCCCN(C)C , target or system Pseudomonas aeruginosa (ATCC 15442) biofilms.
400 to 800 µg/mL

Kindly state the measured minimum biofilm eradication concentration (MBEC) obtained for CCCCCCCCCCCCN with Pseudomonas aeruginosa (ATCC 15442) biofilms.
~38 µg/mL

API: value(readout= minimum biofilm eradication concentration (MBEC), system= Pseudomonas aeruginosa (ATCC 15442) biofilms, query= CCCCCCCCCCCCCCCCN )
200 µg/mL

Request - read-out minimum biofilm eradication concentration (MBEC) | tested on Pseudomonas aeruginosa (ATCC 15442) biofilms | compound O=CCCCC=O [glutaraldehyde, reference compound]
50 to 100 µg/mL

Item CCCCCCCCCCN(C)CCCCCCCCCC with Pseudomonas aeruginosa (ATCC 15442) biofilms - minimum biofilm eradication concentration (MBEC)?
400 µg/mL

Fill in the recorded minimum biofilm eradication concentration (MBEC) for this compound, with Pseudomonas aeruginosa (ATCC 15442) biofilms as test system: CCCCCCCCN
400 µg/mL

Request - read-out minimum biofilm eradication concentration (MBEC) | tested on Pseudomonas aeruginosa (ATCC 15442) biofilms | compound CCCCCCCCCCCCCCCCN(C)C
400 to 800 µg/mL

Pseudomonas aeruginosa (ATCC 15442) biofilms / minimum biofilm eradication concentration (MBEC) / CCCCCCCCCCCCCCN : value?
25 µg/mL

Provide value of minimum biofilm eradication concentration (MBEC) for this record tested with Pseudomonas aeruginosa (ATCC 15442) biofilms: CCCCCCCCNCCCCCCCC
1600 µg/mL

----------
Would you kindly list minimum biofilm eradication concentration (MBEC) for each of these molecules?
# Test system: Pseudomonas aeruginosa (ATCC 15442) biofilms
# protocol summary: MBEC test, 24-hour biofilm, one hour biocide challenge;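 also: Peg-grown biofilms exposed to biocide, then regrowth in broth 18 h at 35 °C, turbidity by absorbance at 650 nm, above 0.100 counted as growth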
# Format: cell-based
# study conditions: Pseudomonas aeruginosa, ATCC15442, 1 h, 24-hour biofilm, 1 hour contact; average of duplicate runs; blends: total amount of components (1:1 ratio); read-out: MBEC, avg.
Field: numeric (µg/mL). Do not append units.

Provide value of minimum biofilm eradication concentration (MBEC) for this record tested with Pseudomonas aeruginosa (ATCC 15442) biofilms: CCCCCCCCCCN(C)CCCCCCCCCC
400

Hello, I am looking for reported minimum biofilm eradication concentration (MBEC) with Pseudomonas aeruginosa (ATCC 15442) biofilms for CCCCCCCCN . Could you help?
400

# value lookup — system Pseudomonas aeruginosa (ATCC 15442) biofilms, readout minimum biofilm eradication concentration (MBEC), item CCCCCCN
1600

Lab note: need minimum biofilm eradication concentration (MBEC) with Pseudomonas aeruginosa (ATCC 15442) biofilms for entry CCCCCCCCCCCCN , please look it up.
25

What reported minimum biofilm eradication concentration (MBEC) corresponds to CCCCCCCCN(C)CCCCCCCC on Pseudomonas aeruginosa (ATCC 15442) biofilms?
800

Provenance of the data: patent US6379563B1
